// endpoint Ki / system CCK-B receptor (Cavia porcellus)
The figure you give is taken to be in nM; do not add the unit.

Solved cases below.
Give Ki (CCK-B receptor (Cavia porcellus)) of the following compound: COc1cccc(NC(=O)NC2N=C(CCN(C)C)c3ccccc3N(CC(=O)N(C)c3ccccc3)C2=O)c1 (stereo not shown)
2.51

Give Ki (CCK-B receptor (Cavia porcellus)) of the following compound: O=C(Nc1cccc(-c2cnco2)c1)NC1N=C(CN2CCOCC2)c2ccccc2N(CC(=O)N2CCCC2)C1=O (stereo not shown)
3.16

Give Ki (CCK-B receptor (Cavia porcellus)) of the following compound: CN(C(=O)CN1C(=O)C(NC(=O)Nc2cccc(N)c2)N=C(CN2CCOCC2)c2ccccc21)c1ccccc1 (stereo not shown)
6.31

***
Give Ki (CCK-B receptor (Cavia porcellus)) of the following compound: CC(C)NCC1=NC(NC(=O)Nc2cccc(C#N)c2)C(=O)N(CC(=O)N(C)c2ccccc2)c2ccccc21 (stereo not shown)
2.51

Give Ki (CCK-B receptor (Cavia porcellus)) of the following compound: COc1cccc(NC(=O)NC2N=C(CN3CCOCC3)c3ccccc3N(CC(=O)N(C)c3ccccc3)C2=O)c1 (single isomer, unassigned; (+)) [Example 14]
1

Give Ki (CCK-B receptor (Cavia porcellus)) of the following compound: CN(C(=O)CN1C(=O)C(NC(=O)Nc2cccc(C#N)c2)N=C(CN2CCSCC2)c2ccccc21)c1ccccc1 (stereo not shown)
1.58

Give Ki (CCK-B receptor (Cavia porcellus)) of the following compound: COc1cccc(NC(=O)NC2N=C(CN3CCOCC3)c3ccccc3N(CC(=O)N(C)c3ccccc3)C2=O)c1 (stereo not shown) [Example 9]
1.26

* * *

// endpoint pKi / system CCK-B receptor (Cavia porcellus)
// returns pKi (minus log10 of molar concentration), number only

Solved cases below.
Bench note: what pKi did CN(C(=O)CN1C(=O)C(NC(=O)Nc2cccc(C#N)c2)N=C(CN2CCCCC2)c2ccccc21)c1ccccc1 (stereo not drawn) show?
9.00

Bench note: what pKi did CN1CCN(CC2=NC(NC(=O)Nc3cccc(C#N)c3)C(=O)N(CC(=O)N(C)c3ccccc3)c3ccccc32)CC1 (stereo not drawn) show?
8.30

Consider the additional molecule presented here.
Bench note: what pKi did CN(C(=O)CN1C(=O)C(NC(=O)Nc2cccc(C#N)c2)N=C(CN2CCOCC2)c2ccccc21)c1ccc(F)cc1 (stereo not drawn) show?
8.70
